# Test Name: Solubility of the compound
# Format: physicochemical
Endpoint Label: solubility (µg/mL)
Kindly answer with a numeric value in µg/mL, unit omitted.

Query: Endpoint output: solubility of Cl.Nc1ccc(-c2cccs2)cc1NC(=O)c1ccc(N2CCC3(CC2)CNC(=O)O3)nc1 . Value?
Reply: 1300

* * *

# Test Name: Plasma clearance in Sprague-Dawley rat at 2 mg/kg, iv
# Type: ADME, organism-based
# Set-up: dose 2 mg/kg, route intravenous
Endpoint Label: clearance (mL/min/kg)
Kindly answer with a numeric value in mL/min/kg, unit omitted.

Query: Endpoint output: clearance of Nc1ccc(-c2cccs2)cc1NC(=O)c1ccc(N2CCC3(CC2)CNC(=O)O3)nc1 . Value?
Reply: 3.6
